PROTOCOL NOTES: Hepatotoxicity against human HepG2 cells assessed as cell viability at 62.5 uM incubated for 48 hrs by MTT assay
Type: toxicity, cell-based
EXPERIMENTAL CONTEXT: read-out: Activity
VALUE KIND: viability at 48 h, 62.5 µM
Answer as a quantity: numeral, then unit.

Req: Fill in viability at 48 h, 62.5 µM for record CSc1ccc(OCc2ncc([N+](=O)[O-])n2C)cc1
Resp: 95%

###

TEST TARGET: Voltage-gated inwardly rectifying potassium channel KCNH2 (Homo sapiens)
PROTOCOL NOTES: Inhibition of human ERG stably overexpressed in HEK293 cells incubated for 30 mins by FLIPR assay
pIC50: −log10 of the molar value.
VALUE KIND: pIC50

Req: Fill in pIC50 for record CSc1ccc(OCc2ncc([N+](=O)[O-])n2C)cc1 [FEXINIDAZOLE]
Resp: ~4.97

###

PROTOCOL NOTES: Metabolic stability in rat liver microsome assessed as compound remaining at 20 uM measured after 32 mins in presence of NADP and GSH by HPLC analysis
Assay type: ADME
EXPERIMENTAL CONTEXT: liver microsomes, read-out: Stability
We begin with a simple list: items and their reported remaining at 32 min, 20 µM.
# unit: % | format: bare number

Req: Fill in remaining at 32 min, 20 µM for record CSc1ccc(C(=O)Nc2ccc3c(c2)B(O)OC3(C)C)cc1
Resp: 8

Req: Fill in remaining at 32 min, 20 µM for record CSc1ccc(CCc2ncc([N+](=O)[O-])n2CCO)cc1
Resp: 20.5

Req: Fill in remaining at 32 min, 20 µM for record C[S+]([O-])c1ccc(C(=O)Nc2ccc3c(c2)B(O)OC3(C)C)cc1 (centres undefined)
Resp: 95.2

Req: Fill in remaining at 32 min, 20 µM for record C[S+]([O-])c1ccc(OCC2Cn3cc([N+](=O)[O-])nc3O2)cc1 (racemic)
Resp: 100

###

PROTOCOL NOTES: Cytotoxicity against mouse L929 cells assessed as inhibition of cell growth incubated for 72 hrs by MTS assay
Format: toxicity, cell-based
We begin with a simple list: items and their reported IC50 at 72 h.

The following compounds have reported results that may help.
In [3]: df
Out[3]:
                              smiles_string  reported_result
0    CSc1ccc(CCc2ncc([N+](=O)[O-])n2CCO)cc1         > 100 µM
1  Cn1c([N+](=O)[O-])cnc1COc1ccc(S(C)(=O)=O)cc1         > 100 µM

Now look at this one.
Req: Fill in IC50 at 72 h for record CSc1ccc(OCc2nccn2C)cc1
Resp: > 100 µM

###

TEST TARGET: Voltage-gated inwardly rectifying potassium channel KCNH2 (Homo sapiens, UniProt Q12809)
Sequence (Q12809 whole entry): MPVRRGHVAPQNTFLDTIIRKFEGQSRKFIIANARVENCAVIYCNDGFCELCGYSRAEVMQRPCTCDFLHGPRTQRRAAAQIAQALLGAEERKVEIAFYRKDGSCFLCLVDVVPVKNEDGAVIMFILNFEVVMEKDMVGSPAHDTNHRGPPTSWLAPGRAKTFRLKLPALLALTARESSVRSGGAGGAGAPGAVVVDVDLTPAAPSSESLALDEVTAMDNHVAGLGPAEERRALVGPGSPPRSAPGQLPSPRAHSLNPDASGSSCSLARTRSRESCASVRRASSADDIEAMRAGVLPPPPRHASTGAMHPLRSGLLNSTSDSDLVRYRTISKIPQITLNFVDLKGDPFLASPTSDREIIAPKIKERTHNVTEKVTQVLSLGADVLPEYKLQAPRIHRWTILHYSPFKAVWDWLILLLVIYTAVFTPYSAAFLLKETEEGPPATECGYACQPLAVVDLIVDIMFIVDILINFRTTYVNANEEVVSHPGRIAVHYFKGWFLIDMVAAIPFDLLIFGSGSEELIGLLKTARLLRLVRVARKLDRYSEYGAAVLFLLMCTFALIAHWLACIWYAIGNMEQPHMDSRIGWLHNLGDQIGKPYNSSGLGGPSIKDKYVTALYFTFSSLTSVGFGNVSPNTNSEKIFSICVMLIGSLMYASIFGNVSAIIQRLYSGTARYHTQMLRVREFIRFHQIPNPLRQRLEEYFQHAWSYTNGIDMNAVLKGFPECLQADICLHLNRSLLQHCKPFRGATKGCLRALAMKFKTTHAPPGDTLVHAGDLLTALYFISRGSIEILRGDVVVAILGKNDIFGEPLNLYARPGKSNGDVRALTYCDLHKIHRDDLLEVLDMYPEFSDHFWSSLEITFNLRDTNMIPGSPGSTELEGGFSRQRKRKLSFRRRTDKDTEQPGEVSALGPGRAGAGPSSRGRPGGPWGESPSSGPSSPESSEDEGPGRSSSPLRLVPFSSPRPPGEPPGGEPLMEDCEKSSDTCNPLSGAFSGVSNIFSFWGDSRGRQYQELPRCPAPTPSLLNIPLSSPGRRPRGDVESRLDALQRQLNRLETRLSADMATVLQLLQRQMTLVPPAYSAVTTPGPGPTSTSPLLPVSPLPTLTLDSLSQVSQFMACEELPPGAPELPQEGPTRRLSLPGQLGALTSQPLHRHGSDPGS
PROTOCOL NOTES: Inhibition of human ERG stably overexpressed in HEK293 cells incubated for 30 mins by FLIPR assay
Format: toxicity, cell-based
EXPERIMENTAL CONTEXT: human, hek293, 0.5 h; time 30 min
We begin with a simple list: items and their reported IC25.
# unit: µM | format: bare number

The following molecules have reported results that may help.
In [3]: df
Out[3]:
                                   molecule  value_kind  reported_result
0      CCc1ccc(OCc2ncc([N+](=O)[O-])n2C)cc1        IC25             14.9
1  Cn1c([N+](=O)[O-])cnc1COc1ccc(S(C)(=O)=O)cc1        IC25             42.2
2  C[S+]([O-])c1ccc(C(=O)Nc2ccc3c(c2)B(O)OC3(C)C)cc1 (stereo not given)        IC25             25.7
3      CSc1ccc(NCc2ncc([N+](=O)[O-])n2C)cc1        IC25              3.1
4  C[S+]([O-])c1ccc(OCC2Cn3cc([N+](=O)[O-])nc3O2)cc1 (racemic)        IC25             30.1

Req: Fill in IC25 for record CSc1ccc(OCc2ncc([N+](=O)[O-])n2C)cc1
Resp: 8.6

###

PROTOCOL NOTES: Cytotoxicity against mouse L929 cells assessed as inhibition of cell growth incubated for 72 hrs by MTS assay
Format: toxicity, cell-based
VALUE KIND: IC50 at 72 h

The following compounds have reported results that may help.
                                   compound    value_kind  reported_result
0      CSc1ccc(NCc2ncc([N+](=O)[O-])n2C)cc1  IC50 at 72 h         > 100 µM
1  CSc1ccc(OC[C@@H]2Cn3cc([N+](=O)[O-])nc3O2)cc1  IC50 at 72 h        > 92.2 µM
2  CSc1ccc(Cn2ccn3cc([N+](=O)[O-])nc3c2=O)cc1  IC50 at 72 h        > 57.5 µM

Req: Fill in IC50 at 72 h for record CSc1ccc(CCc2ncc([N+](=O)[O-])n2C)cc1
Resp: > 100 µM

Req: Fill in IC50 at 72 h for record CCCCCCCCCCCCCCCCOP(=O)([O-])OCC[N+](C)(C)C
Resp: 81.5 µM

Req: Fill in IC50 at 72 h for record Cn1c([N+](=O)[O-])cnc1C(=O)N1CCS(=O)(=O)CC1
Resp: > 100 µM

Req: Fill in IC50 at 72 h for record CSc1ccc(OCC2Cn3cc([N+](=O)[O-])nc3O2)cc1 (racemic)
Resp: > 100 µM

Req: Fill in IC50 at 72 h for record Cn1c([N+](=O)[O-])cnc1CCc1ccc(S(C)(=N)=O)cc1 (configuration not stated)
Resp: > 100 µM

Req: Fill in IC50 at 72 h for record Cn1c([N+](=O)[O-])cnc1COc1ccc(S(C)(=N)=O)cc1 (configuration not stated)
Resp: > 100 µM

Req: Fill in IC50 at 72 h for record CSc1ccc(NC(=O)c2ncc([N+](=O)[O-])[nH]2)cc1
Resp: 84.7 µM

###

We begin with a simple list: items and their reported viability at up to 125 µM.
PROTOCOL NOTES: Hepatotoxicity against mouse TAMH cells assessed as cell viability at 7.8 to 125 uM incubated for 24 to 48 hrs by MTT assay
Format: toxicity, cell-based
EXPERIMENTAL CONTEXT: dose lower 7.8 µM, time lower 24 hrs, dose upper 125 µM, time upper 48 hrs, read-out: Activity

The following molecules have reported results that may help.
In [3]: df
Out[3]:
                                   molecule  reported_result
0  CSc1ccc(Cn2ccn3cc([N+](=O)[O-])nc3c2=O)cc1            > 50%
1               CSc1ccc(OCc2ncc(C#N)n2C)cc1            > 50%
2  C[S+]([O-])c1ccc(C(=O)Nc2ccc3c(c2)B(O)OC3(C)C)cc1 (stereo unspecified)            > 50%

Req: Fill in viability at up to 125 µM for record Cn1c([N+](=O)[O-])cnc1C(=O)N1CCS(=O)(=O)CC1
Resp: > 50%

Req: Fill in viability at up to 125 µM for record COc1ccc(Cn2ccn3cc([N+](=O)[O-])nc3c2=O)cc1
Resp: > 50%

Req: Fill in viability at up to 125 µM for record Cn1c([N+](=O)[O-])cnc1CCc1ccc(S(C)(=N)=O)cc1 (stereo unspecified)
Resp: > 50%

Req: Fill in viability at up to 125 µM for record Cn1c([N+](=O)[O-])cnc1C(=O)Nc1ccc(F)cc1C(F)(F)F
Resp: > 50%

Req: Fill in viability at up to 125 µM for record Cn1c([N+](=O)[O-])cnc1COc1ccc([S+](C)[O-])cc1 (stereo unspecified) [FEXINIDAZOLE SULFOXIDE]
Resp: > 50%

Req: Fill in viability at up to 125 µM for record CSc1ccc(NC(=O)c2ncc([N+](=O)[O-])[nH]2)cc1
Resp: 56%

Req: Fill in viability at up to 125 µM for record CSc1ccc(OC[C@H]2Cn3cc([N+](=O)[O-])nc3O2)cc1
Resp: > 50%

Req: Fill in viability at up to 125 µM for record C[S+]([O-])c1ccc(OCC2Cn3cc([N+](=O)[O-])nc3O2)cc1 (racemic)
Resp: 56%

###

TEST TARGET: Voltage-gated inwardly rectifying potassium channel KCNH2 (Homo sapiens)
PROTOCOL NOTES: Inhibition of human ERG stably overexpressed in HEK293 cells incubated for 30 mins by FLIPR assay
Type: toxicity, cell-based
EXPERIMENTAL CONTEXT: human, hek293, 0.5 h; time 30 min
VALUE KIND: log10(IC25) (log10 of the value in µM)
Annotation: log10 of IC25, µM basis.

The following compounds have reported results that may help.
                                   compound  reported_result
0  Cn1c([N+](=O)[O-])cnc1CCc1ccc(S(C)(=N)=O)cc1 (stereo unspecified)             1.69
1      CSc1ccc(CCc2ncc([N+](=O)[O-])n2C)cc1             0.99
2                    CSc1ccc(OCc2nccn2C)cc1             1.54
3               CSc1ccc(OCc2ncc(C#N)n2C)cc1             1.43
4  CSc1ccc(OCC2Cn3cc([N+](=O)[O-])nc3O2)cc1 (racemic)             0.46

Now look at this one.
Req: Fill in log10(IC25) for record CSc1ccc(CCc2ncc([N+](=O)[O-])n2CCO)cc1
Resp: 0.78

These entries and their values trace back to ChEMBL document CHEMBL6134787.
